Where do the numbers come from? From PubChem BioAssay (NCI).

- System: HOP-62 NSCLC
- PROTOCOL NOTES: NCI-60 one-dose screen, 48 h (100 = growth as untreated, 0 = no growth, -100 = all killed)
- EXPERIMENTAL CONTEXT: 10 µM
This is part of a sample that, as a whole, favours compounds with a hit. Of some 83,000 tested, about 20% had one in any assay.
Use 90% as the dividing line for growth, with the line itself on the true (1) side and lower values as false (0).

Worked examples follow.
COc1ccc2c(c1)C(CC(=O)NN)CCC2 (stereo not given) = true (1)
CN(C)CCCOc1ccc(OCCCN(C)C)c2c1C(=O)c1ccccc1C2=O = false (0)
O=C(NCCNC(=O)c1ccc(F)cc1)Nc1ccc(-n2cc(-c3ccncc3)c(-c3ccc(Cl)c(O)c3)n2)cc1 = false (0)
O=S(=O)(O)c1cccc(Nc2ccc3ccccc3c2)c1 = false (0)

Pending molecule:
Does Cc1ccc(NC(=S)NNC(=S)Nc2ccc(C)cc2)cc1 have a reported growth of at least 90%?
false (0)
